Test system: MCF7
measurement description: NCI tumour cell line growth inhibition, 48 h
The source made the active and inactive calls. Cut-off read from the data, not from the text of the source: active = GI50 up to about 1.1 µM and inactive = higher.
Response enum: active, inactive

Examples with answers:
* CC[C@H](C)[C@H]1NC(=O)[C@@H](NC(=O)[C@@H](CC(C)C)N(C)C(=O)C2CCCN2C(=O)[C@H](C)O)[C@@H](C)OC(=O)[C@@H]2Cc3ccccc3CN2C(=O)[C@@H]2CCCN2C(=O)[C@H](CC(C)C)NC(=O)[C@@H](C)C(=O)[C@H](C(C)C)OC(=O)C[C@@H]1O (some centres not stated) | active
* Nc1nc(Cl)cc(NCC2(CO)CCC(Cc3ccccc3)C2)n1 (configuration not stated) | inactive

Prompt: Hi, do you know how "CC(C)(C)OC(=O)N/N=C(/N)Cc1ccc(Cl)cc1" came out in this test?
Completion: inactive

Prompt: How was CC[C@@]1(C)CCC2c3ccc(O)cc3CC[C@H]2C1C (some centres not stated) classified in this test?
Completion: inactive

Prompt: So what was the verdict on "COc1cccc(-c2cc(O)c3cc(N4CCN(C)CC4)ccc3n2)c1" in this test?
Completion: inactive

Prompt: GET /call?item= CCCCCCCC(CC(=O)NC(CO)C(=O)NC(CO)CC(C)C)OC(=O)CC(CCCCCCC)OC(=O)CC(CCCCCCC)OC1OC(C)C(O)C(OC2OC(C)C(OC(C)=O)C(O)C2O)C1O (configuration not stated) returns the recorded outcome of this test.
Completion: inactive

Prompt: I would be grateful if you could indicate the recorded call for "COC(=O)C1=COc2c(n(C)c3ccccc23)-c2ccccc21" .
Completion: inactive

Prompt: Field: outcome | Entry: "COc1cnnc2c(C)c(-c3ccccc3)nn12"
Completion: inactive

Prompt: Called result for "Cc1cccc2c(=O)c3c(O)cc(O)cc3n(C)c12"
Completion: inactive

Prompt: Status in this test for CC1=CC(O)(c2ccccc2)C(N2CCOCC2)N1O (configuration not stated) ?
Completion: inactive

Prompt: Give the logged outcome of this assay for the following compound: COC1(OC)c2no[n+]([O-])c2CCC1O (configuration not stated)
Completion: inactive

Prompt: What did the test return for "COc1ccc(/C=C2\CCC/C(=C\c3ccc(O)c(CN4CCCCC4)c3)C2=O)cc1" ?
Completion: inactive

* * *

Items are presented alongside their recorded GI50.
System: NCI-H23
measurement description: NCI tumour cell line growth inhibition, 48 h
Activity calls are given as the source filed them. Cut-off read from the data, not from the text of the source: active = GI50 up to about 1.1 µM and inactive = higher.

- C#CC1(O)CCCCCCCCC2(CCCCCCCC1)OCCO2: 16.8 µM (inactive)

Prompt: Identify GI50 associated with the compound "Cc1c(C(=O)c2ccc(N)c3ccccc23)c2ccccc2n1CCN1CCOCC1"
Completion: 29.7 µM (inactive)

Prompt: Dear colleague, please send me the reported GI50 for "O=P1(Cc2ccccc2)c2ccccc2-c2ccccc21" when you can.
Completion: 3.86 µM (inactive)

Prompt: Specify GI50 for "COc1ccc2c(O)c3[n+](cc2c1OC)CCc1cc2c(cc1-3)OCO2" and stop.
Completion: > 100 µM (inactive)

Prompt: Output measured GI50 for this item: "COc1ccc(/C=C2\CCC/C(=C\c3ccc(O)c(CN4CCCCC4)c3)C2=O)cc1"
Completion: 4.93 µM (inactive)

Prompt: Determine from records and report GI50 for Fc1ccc2c(c1)SC1Oc3ccccc3-c3c1c-2nn3-c1ccccc1 (stereo unspecified)
Completion: > 100 µM (inactive)
